Each recorded value in this set is attributed to paper PMC2706954.

tested on: E. faecalis ATCC29212; assay type: cell-based; conditions: ATCC29212
readout-type: MIC E. faecalis ATCC29212

Below are worked cases with known answers.
* CC[C@H](C)[C@@H]1NC(=O)[C@@H]2CSC(C)C(NC(=O)[C@@H]3CSC(C)C(NC(=O)[C@H](Cc4ccccc4)NC(=O)C4NC(=O)[C@@H](N)CSC4C)C(=O)N[C@@H](CC(C)C)C(=O)N4CCC[C@H]4C(=O)NCC(=O)NCC(=O)NCC(=O)NCC(=O)N[C@@H](C(C)C)C(=O)N3)C(=O)N[C@@H](CC(C)C)C(=O)NC(C(=O)NCC(=O)N[C@@H](CCC(=O)O)C(=O)N2)C(C)SC=CNC1=O (stereo partly drawn) [S16G] | 64 µg/mL
* C=C1NC(=O)C2NC(=O)[C@H](CCSC)NC(=O)C(NC(=O)[C@@H]3CSC(C)C(NC(=O)[C@H](Cc4ccccc4)NC(=O)C4NC(=O)[C@@H](N)CSC4C)C(=O)N[C@@H](CC(C)C)C(=O)N4CCC[C@H]4C(=O)NCC(=O)NCC(=O)NCC(=O)NCC(=O)N[C@@H](C(C)C)C(=O)N3)C(C)SC[C@H](NC(=O)[C@H](CCC(=O)O)NC1=O)C(=O)N[C@@H]([C@@H](C)CC)C(=O)NC=CSC2C (stereo partly drawn) [L14M] | 64 µg/mL

Kindly review the next compound as well.
The reported MIC E. faecalis ATCC29212 of the compound C=C1NC(=O)C2NC(=O)[C@H](CC(C)C)NC(=O)C(NC(=O)[C@@H]3CSC(C)C(NC(=O)[C@H](Cc4ccccc4)NC(=O)C4NC(=O)[C@@H](N)CSC4C)C(=O)N[C@@H](CC(C)C)C(=O)N4CCC[C@H]4C(=O)NCC(=O)NCC(=O)NCC(=O)N[C@@H](C(C)C)C(=O)N[C@@H](C(C)C)C(=O)N3)C(C)SC[C@H](NC(=O)[C@H](CCC(=O)O)NC1=O)C(=O)N[C@@H]([C@@H](C)CC)C(=O)NC=CSC2C (stereo partly drawn) [G10V] was >64 µg/mL
